Source listed as the supplement of paper PMC9233669.

# Tested on: biotinyl-Leu-oxazolone
# MEASUREMENT NOTES: self-aminoacylation, catalytic enhancement (BLO) (fold over background); higher = more active; k-Seq, kA / k0A0; sequences stand for … in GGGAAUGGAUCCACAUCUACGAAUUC…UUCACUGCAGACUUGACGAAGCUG
Fewer inactive variants are shown than the library holds.
Tag: Met if measured self-aminoacylation is not below 4, Not met if it is.

Some solved entries appear below for comparison.
# SEQUENCE CONTENT, CLASS LABEL
rows = [
    ("AUUGCCCUGGUCAUCGAGUGA [Fam2.1 aminoacylation ribozyme variant]", "Met"),
    ("AUUACCCUGGCCAUCGAGAGA [Fam2.1 aminoacylation ribozyme variant]", "Not met"),
    ("AUGACCCUGGUGAUCGAGUGA [Fam2.1 aminoacylation ribozyme variant]", "Met"),
    ("AAUACCCUGGUCAUUGAGUGA [Fam2.1 aminoacylation ribozyme variant]", "Met"),
    ("CCAUACUUCAAGCAAUCGGAC [Fam1B.1 aminoacylation ribozyme variant]", "Not met"),
    ("CCACACUUCAAGCAAUCGCUG [Fam1B.1 aminoacylation ribozyme variant]", "Not met"),
    ("AUGUUUGCUAAUAGUCGCAGG [Fam3.1 aminoacylation ribozyme variant]", "Not met"),
    ("AUUCCCCUAGGUCAUAGGGUG [Fam2.2 aminoacylation ribozyme variant]", "Met"),
]

Prompt: Hello, I need to know if CCACACCUCAAGCCAUCGGUC [Fam1B.1 aminoacylation ribozyme variant] has measured self-aminoacylation not below 4. Thanks!
Completion: Not met

Prompt: Quick check, self-aminoacylation >= 4? CCCCACUUCAAGCAAUCGGAC [Fam1B.1 aminoacylation ribozyme variant]
Completion: Not met

Prompt: Could you tell me if the measured self-aminoacylation of CUACUUCAAACAAUCGGUGAG [Fam1A.1 aminoacylation ribozyme variant] reaches 4 or more?
Completion: Not met

Prompt: Quick check: does AUUAACCUUGUCAUCGAGUGA [Fam2.1 aminoacylation ribozyme variant] have self-aminoacylation greater than or equal to 4?
Completion: Met

Prompt: Please check the record AUUCCCCUGGUCAUCGAGUUA [Fam2.1 aminoacylation ribozyme variant] and state if its self-aminoacylation is at or above 4.
Completion: Not met

Prompt: In plain terms: is recorded self-aminoacylation at least 4 for CUACUGCAAACUAUCGGUCUG [Fam1A.1 aminoacylation ribozyme variant] ?
Completion: Not met

Prompt: Tell me whether self-aminoacylation is at least 4 here: AUUACCCUGGUCAUCGUGCGA [Fam2.1 aminoacylation ribozyme variant]
Completion: Not met

Prompt: Decide: is the reported value of self-aminoacylation for AAGUUUUCUAAUAGUCGCGAG [Fam3.1 aminoacylation ribozyme variant] equal to or greater than 4?
Completion: Not met

Prompt: Is the recorded value of self-aminoacylation equal to or greater than 4 for this sequence? GAGUUUGCCAAUAGUCGCAAG [Fam3.1 aminoacylation ribozyme variant]
Completion: Not met
